This collection of values is drawn from ChEMBL document CHEMBL5291721.

target: Voltage-dependent L-type calcium channel subunit alpha-1C (Rattus norvegicus, UniProt P22002); format: functional; note: assay procedure not described here
Sequence (P22002 whole entry): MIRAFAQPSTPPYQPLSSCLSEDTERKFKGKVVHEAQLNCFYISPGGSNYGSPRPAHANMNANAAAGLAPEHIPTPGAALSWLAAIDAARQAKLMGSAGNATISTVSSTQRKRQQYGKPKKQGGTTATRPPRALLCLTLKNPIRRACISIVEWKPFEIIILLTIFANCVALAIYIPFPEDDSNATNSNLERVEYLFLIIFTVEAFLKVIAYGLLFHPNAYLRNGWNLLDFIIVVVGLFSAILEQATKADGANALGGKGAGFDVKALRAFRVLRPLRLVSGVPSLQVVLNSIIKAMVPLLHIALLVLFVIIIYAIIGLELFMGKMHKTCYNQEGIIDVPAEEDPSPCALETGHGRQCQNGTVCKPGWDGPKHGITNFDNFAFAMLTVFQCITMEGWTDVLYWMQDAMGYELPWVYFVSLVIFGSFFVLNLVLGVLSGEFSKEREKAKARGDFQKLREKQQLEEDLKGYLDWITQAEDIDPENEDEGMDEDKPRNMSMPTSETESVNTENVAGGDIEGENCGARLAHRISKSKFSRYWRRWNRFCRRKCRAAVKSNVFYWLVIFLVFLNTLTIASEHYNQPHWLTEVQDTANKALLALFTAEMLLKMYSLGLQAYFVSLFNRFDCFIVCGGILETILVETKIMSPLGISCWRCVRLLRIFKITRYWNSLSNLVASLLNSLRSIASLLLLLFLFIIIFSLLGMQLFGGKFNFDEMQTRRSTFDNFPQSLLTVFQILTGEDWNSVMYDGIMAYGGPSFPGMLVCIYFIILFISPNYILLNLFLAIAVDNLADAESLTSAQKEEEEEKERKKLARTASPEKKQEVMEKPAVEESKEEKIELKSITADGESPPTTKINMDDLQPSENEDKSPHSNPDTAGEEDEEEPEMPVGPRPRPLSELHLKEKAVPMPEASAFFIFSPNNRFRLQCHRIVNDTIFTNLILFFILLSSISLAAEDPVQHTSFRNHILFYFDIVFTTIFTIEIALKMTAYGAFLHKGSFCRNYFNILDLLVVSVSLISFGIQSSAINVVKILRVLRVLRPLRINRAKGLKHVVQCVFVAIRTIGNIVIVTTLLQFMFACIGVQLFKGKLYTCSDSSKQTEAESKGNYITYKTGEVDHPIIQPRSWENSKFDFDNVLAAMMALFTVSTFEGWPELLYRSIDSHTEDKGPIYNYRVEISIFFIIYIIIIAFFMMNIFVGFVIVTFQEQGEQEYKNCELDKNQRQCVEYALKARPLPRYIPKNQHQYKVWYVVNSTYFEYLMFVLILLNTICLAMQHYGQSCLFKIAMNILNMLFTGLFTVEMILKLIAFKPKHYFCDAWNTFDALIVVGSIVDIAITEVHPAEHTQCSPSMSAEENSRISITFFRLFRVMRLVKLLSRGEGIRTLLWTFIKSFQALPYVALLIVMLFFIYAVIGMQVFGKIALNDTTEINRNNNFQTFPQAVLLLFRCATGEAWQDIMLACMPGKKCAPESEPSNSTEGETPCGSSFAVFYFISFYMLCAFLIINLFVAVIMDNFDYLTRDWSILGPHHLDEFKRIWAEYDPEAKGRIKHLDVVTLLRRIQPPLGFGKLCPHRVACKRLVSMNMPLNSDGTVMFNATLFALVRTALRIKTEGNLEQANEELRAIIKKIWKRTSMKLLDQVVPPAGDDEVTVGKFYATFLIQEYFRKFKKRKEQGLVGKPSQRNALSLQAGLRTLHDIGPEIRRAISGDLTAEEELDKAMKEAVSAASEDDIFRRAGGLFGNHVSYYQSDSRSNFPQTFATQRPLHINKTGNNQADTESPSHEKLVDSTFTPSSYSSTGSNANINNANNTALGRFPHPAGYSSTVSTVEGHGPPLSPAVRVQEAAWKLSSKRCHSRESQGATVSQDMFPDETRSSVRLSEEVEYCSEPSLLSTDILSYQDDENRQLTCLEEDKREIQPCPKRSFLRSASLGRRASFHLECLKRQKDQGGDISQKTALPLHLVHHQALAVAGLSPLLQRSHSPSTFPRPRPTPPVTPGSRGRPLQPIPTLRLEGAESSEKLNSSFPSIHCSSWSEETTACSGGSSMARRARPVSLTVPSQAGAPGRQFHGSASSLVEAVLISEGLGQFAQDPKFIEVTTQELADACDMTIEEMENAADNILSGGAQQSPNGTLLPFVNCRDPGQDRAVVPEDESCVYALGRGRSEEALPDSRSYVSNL
Quantity: AC50

{"Molecule": "COC(=O)C1=C(C)NC(C)=C(C(=O)OCCN2CCN(C(c3ccccc3)c3ccccc3)CC2)C1c1cccc([N+](=O)[O-])c1 (centres undefined)", "AC50": "0.3 µM"}
{"Molecule": "CCCc1nc2c(C)cc(-c3nc4ccccc4n3C)cc2n1Cc1ccc(-c2ccccc2C(=O)O)cc1", "AC50": "> 30 µM"}
{"Molecule": "CC=CC1=C(C(=O)O)N2C(=O)[C@@H](NC(=O)[C@H](N)c3ccc(O)cc3)[C@H]2SC1", "AC50": "> 30 µM"}
{"Molecule": "C=CC[N+]1([C@H]2C[C@H]3[C@@H]4CC[C@H]5C[C@H](O)[C@@H](N6CCOCC6)C[C@]5(C)[C@H]4CC[C@]3(C)[C@H]2OC(C)=O)CCCC1", "AC50": "> 30 µM"}
{"Molecule": "CC1=C(C(=O)OC(C)C)C(c2cccc([N+](=O)[O-])c2)C(C(=O)OC2CN(C(c3ccccc3)c3ccccc3)C2)=C(N)N1 (centres undefined)", "AC50": "0.092 µM"}

Per the record, O=C(O)CCNC(=O)c1ccc(/N=N/c2ccc(O)c(C(=O)O)c2)cc1 [BALSALAZIDE] has AC50 of > 30 µM

Per the record, CC(C)[C@H](N)C(=O)OCCOCn1cnc2c(=O)[nH]c(N)nc21 has AC50 of > 10 µM

Per the record, CC[C@@H](CO)NC(=O)[C@@H]1C=C2c3cccc4c3c(cn4C)C[C@H]2N(C)C1 [METHYSERGIDE] has AC50 of > 10 µM

Per the record, CCCN1CC(NS(=O)(=O)N(CC)CC)CC2Cc3c(O)cccc3CC21 (centres undefined) [QUINAGOLIDE] has AC50 of > 30 µM

Per the record, CN1CCN=C(c2ccccc2)c2cc(Cl)ccc21 has AC50 of > 30 µM

Per the record, CCC1(CCC(C)C)C(=O)NC(=O)NC1=O has AC50 of > 10 µM

Per the record, Cc1ccccc1-n1c(CF)nc2ccc(N)cc2c1=O has AC50 of > 10 µM

Per the record, COc1ccc(C2C(=O)c3ccccc3C2=O)cc1 has AC50 of > 10 µM

Per the record, COc1cc(C)c(/C=C/C(C)=C/C=C/C(C)=C/C(=O)O)c(C)c1C has AC50 of > 10 µM

Per the record, CCCN(CCC)S(=O)(=O)c1ccc(C(=O)O)cc1 has AC50 of > 10 µM
